readout_label: melting point (°C)
# output: bare number, implied unit °C

Some compounds with known melting point results, for comparison:
1. Cc1c2n(c3c(-c4ccc(N)nc4)cc(Cl)cc13)CCNC2=O	250
2. Cc1c2n(c3c(-c4ccc(CO)cc4)cc(F)cc13)CCNC2=O	220
3. Cc1c2n(c3c(-c4cccc(Cl)c4)cc(Cl)cc13)CCNC2=O	218.5

Task item: Given N#Cc1cc(-c2ccc(Cl)c(C(F)(F)F)c2)c2c(c1)cc1n2CCNC1=O , state its recorded melting point.
Reply: 347

Task item: // lookup melting point for N#Cc1cc(-c2cccc(C(F)(F)F)c2)c2c(c1)cc1n2CCNC1=O
Reply: 279.5

Task item: Looking for the measured melting point of Cc1c2n(c3c(-c4ccc(Cl)cc4Cl)cc(Cl)cc13)CCNC2=O , can you help?
Reply: 213

Task item: Fill blank: measured melting point of the compound Cc1c2n(c3c(-c4ccc(Cl)c(Cl)c4)cc(C#N)cc13)CCNC2=O is ____.
Reply: 245

Task item: Query (compound): Cc1c2n(c3c(-c4ccnc(F)c4)cc(Cl)cc13)CCNC2=O ; field requested: melting point
Reply: 290.5

Task item: Could you tell me which melting point is on file for C[C@@H]1CNC(=O)c2cc3cc(F)cc(-c4ccc(Cl)cc4)c3n21 ?
Reply: 282.5

----------
readout_label: melting point (°C)
Please respond with the number in °C and leave the unit unwritten.

1. Cc1c2n(c3c(-c4ccc([N+](=O)[O-])cc4)cc(C#N)cc13)CCNC2=O [Example 276]	312
2. O=C1NCCCn2c1cc1cc(Cl)cc(-c3ccc(F)c(F)c3)c12 [Example 46]	230.5
3. Cc1c2n(c3c(-c4ccccc4)cc(C#N)cc13)CCCNC2=O [Example 245]	258
4. Cc1c2n(c3c(-c4ccc(Cl)cc4)cc(Cl)cc13)CCCNC2=O [Example 69]	271
5. Cc1c2n(c3c(-c4ccc(F)cc4)cc(Cl)cc13)CCCNC2=O [Example 70]	260

Task item: Quick one: melting point of O=C1NCCn2c1cc1c(F)c(F)cc(-c3ccc(F)cc3)c12 [Example 32] ?
Reply: 283.5

Task item: What value of melting point has been recorded for this entry: C[C@@H]1CNC(=O)c2cc3cc(F)cc(-c4cc(F)cc(F)c4)c3n21 [Example 9]
Reply: 229.5

Task item: Sample Cc1c2n(c3c(-c4ccc(C(F)(F)F)cc4)cc(Cl)cc13)CCNC2=O [Example 90] — what was its melting point?
Reply: 260.5

----------
# melting point per record follows
Give your result in °C as a bare value.

Known melting point results, listed for orientation:
1. Cc1c2n(c3c(-c4cc(F)cc(F)c4)cc(C#N)cc13)CCNC2=O [Example 261]	303
2. Cc1c2n(c3c(-c4ccc(C#N)cc4)cc(C#N)cc13)CCCNC2=O [Example 200]	314
3. Cc1c2n(c3c(-c4cccnc4)cc(Cl)cc13)CCNC2=O [Example 137]	252.5
4. Cc1ccc(-c2cc(C#N)cc3c(C)c4n(c23)CCCNC4=O)cc1F [Example 291]	265
5. Cc1ccc(-c2cc(F)cc3c(C)c4n(c23)CCNC4=O)cc1 [Example 81]	226

Task item: Recorded melting point of Cc1c2n(c3c(-c4ccc(Cl)c(Cl)c4)cc(F)cc13)CCNC2=O [Example 86] , please.
Reply: 224

Task item: Find the recorded melting point belonging to Cc1ccc(-c2cc(C#N)cc3cc4n(c23)CCNC4=O)cc1 [Example 94] and report it.
Reply: 285.5

Task item: For O=C1NCCCn2c1cc1cc(F)c(F)c(-c3ccc(Cl)cc3)c12 [Example 43] , what is its reported melting point?
Reply: 232.5

Task item: Fill in: melting point of Cc1c2n(c3c(-c4ccc(F)cc4)cc(F)cc13)CCNC2=O [Example 74] is ___
Reply: 182

Task item: Give the measured melting point of Cc1c2n(c3c(-c4ccc(Cl)c(C(F)(F)F)c4)cc(C#N)cc13)CCNC2=O [Example 295] .
Reply: 278

Task item: Entry COc1ccc(-c2cc(F)c(F)c3cc4n(c23)CCCNC4=O)cc1 [Example 37] has what melting point?
Reply: 207.5

Task item: Would you kindly share the measured melting point for Cc1c2n(c3c(-c4cccc(F)c4)cc(Cl)cc13)CCNC2=O [Example 96] ?
Reply: 239

Task item: May I ask what melting point has been recorded for N#Cc1cc(-c2ccc(N)nc2)c2c(c1)cc1n2CCNC1=O [Example 224] ?
Reply: 305

Task item: Returns the measured melting point for the input compound. Input: Cc1c2n(c3c(-c4ccc(Cl)nc4)cc(C#N)cc13)CCNC2=O [Example 278]
Reply: 318

Task item: Record request: melting point value, item Cc1c2n(c3c(-c4ccc5c(c4)CCO5)cc(Cl)cc13)CCNC2=O [Example 116]
Reply: 261

Task item: Requested read-out: melting point. Entry: Cc1c2n(c3c(-c4ccc(N)nc4)cc(C#N)cc13)CCCNC2=O [Example 251]
Reply: 306

Task item: So what's the measured melting point for this one? Cc1c2n(c3c(-c4ncc(C(F)(F)F)s4)cc(F)cc13)CCNC2=O [Example 186]
Reply: 263

Task item: Sample Cc1c2n(c3c(-c4cccnc4)cc(F)cc13)CCNC2=O [Example 152] — what was its melting point?
Reply: 239

Task item: Entry under review: N#Cc1cc(-c2ccc(F)c(F)c2)c2c(c1)c(C(F)(F)F)c1n2CCNC1=O [Example 182] . Reported melting point?
Reply: 217

Task item: Entry O=C1NCCn2c1cc1cc(F)cc(-c3ccc(F)cc3)c12 [Example 18] has what melting point?
Reply: 304

Task item: Query: melting point; subject: Cc1c2n(c3c(-c4ccc5c(c4)OCO5)cc(Cl)cc13)CCNC2=O [Example 103]
Reply: 244.5

----------
# Tested on: human embryonic stem cell derived neural stem cells (NSCs)
# assay_remarks: Neural Stem Cell Proliferation Assay (neurogenesis assay, ATP levels by CellTiterGlo)
# Type: cell-based
# recorded_conditions: 96 h, compound concentration at which 150% activity of control (100%) is reached, NSC proliferation by ATP level after 4 days incubation, dose response 8 μM to 8 nM
Field: label. Allowed values: 1.0 (EC (150% of control) < 0.04 µM) or 0.0 (EC (150% of control) >= 0.04 µM).

Solved cases (5 shown):
1. Cc1ccc(-c2cc(C#N)cc3cc4n(c23)CCNC4=O)cc1 [Example 94]	1.0
2. C[C@@H]1CNC(=O)c2cc3cccc(-c4ccncc4)c3n21 [Example 3]	0.0
3. Cc1c2n(c3c(-c4ccc(F)c(F)c4)cc(Cl)cc13)CCCNC2=O [Example 68]	0.0
4. N#Cc1cc(-c2ccc(C(F)(F)F)cc2)c2c(c1)cc1n2CCCNC1=O [Example 218]	0.0
5. Cc1c2n(c3c(-c4ccc(C#N)cc4)cc(F)cc13)CCNC2=O [Example 124]	1.0

Task item: # check: EC (150% of control) < 0.04 µM for Cc1c2n(c3c(-c4ccc(N(C)C)nc4)cc(Cl)cc13)CCNC2=O [Example 154]
Reply: 1.0

Task item: Record Cc1c2n(c3c(-c4ccc(S(C)(=O)=O)cc4)cc(F)cc13)CCNC2=O [Example 125] : is its EC (150% of control) strictly below 0.04 µM?
Reply: 1.0

Task item: # TODO verify EC (150% of control) < 0.04 µM strictly for this molecule: COc1ccc(-c2cc(F)cc3c(C)c4n(c23)CCNC4=O)cn1 [Example 146]
Reply: 1.0

Task item: Regarding Cc1c2n(c3c(-c4ccc(C(F)(F)F)cc4)cc(C#N)cc13)CCNC2=O [Example 165] , kindly confirm whether its EC (150% of control) is beneath 0.04 µM.
Reply: 1.0

Task item: # TODO verify EC (150% of control) < 0.04 µM strictly for this molecule: Cc1c2n(c3c(-c4ccc(Cl)c(C(F)(F)F)c4)cc(Cl)cc13)CCNC2=O [Example 135]
Reply: 1.0

Task item: Would you kindly verify if EC (150% of control) of Cc1c2n(c3c(-c4cccc(Cl)c4)cc(F)cc13)CCNC2=O [Example 128] is strictly less than 0.04 µM?
Reply: 0.0

----------
Recorded melting point, one value per entry.
Express your answer in °C, writing the number without its unit.

Here's what some known entries look like.
1) Cc1c2n(c3c(-c4ccc(C(F)(F)F)cc4)cc(F)cc13)CCNC2=O	269.5
2) Cc1c2n(c3c(-c4cc(Cl)cc(Cl)c4)cc(C#N)cc13)CCNC2=O	347
3) N#Cc1cc(-c2ccc(F)c(F)c2)c2c(c1)cc1n2CCNC1=O	289.5
4) Cc1c2n(c3c(-c4ccco4)cc(F)cc13)CCNC2=O	236
5) N#Cc1cc(-c2ccncc2)c2c(c1)cc1n2CCCNC1=O	278.5

Task item: What melting point value was documented for this molecule, N#Cc1cc(-c2ccnc(Cl)c2)c2c(c1)cc1n2CCCNC1=O ?
Reply: 286.5

Task item: Fill in: melting point of Cc1ccc(-c2cc(F)cc3c(C)c4n(c23)CCNC4=O)cc1F is ___
Reply: 206

Task item: // query melting point value for entry Cc1c2n(c3c(-c4ccc(F)c(F)c4F)cc(F)cc13)CCNC2=O
Reply: 130

Task item: Can you share its melting point? I mean this molecule: Cc1c2n(c3c(-c4cnc(N)nc4)cc(F)cc13)CCNC2=O
Reply: 310

Task item: Find the recorded melting point belonging to N#Cc1cc(-c2ccc(Cl)c(Cl)c2)c2c(c1)cc1n2CCNC1=O and report it.
Reply: 330.5

Task item: Report melting point for N#Cc1cc(-c2ccc([N+](=O)[O-])cc2)c2c(c1)cc1n2CCCNC1=O please.
Reply: 193.5
